Assay: Absolute oral bioavailability in Male Sprague-Dawley Rat (8.98 mg/kg iv)
Type: ADME, organism-based
Conditions: in vivo

{"columns": ["compound.smiles", "bioavailability, %"],
 "data": [
  ["CC(=O)NC[C@H]1CC(c2ccc(N3CCOCC3)c(F)c2)=NO1", 100]
]}

----------
Tested on: Haemophilus influenzae
Assay: In vitro minimum inhibitory concentration (MIC) against Haemophilus influenzae UC30063
Assay type: functional

{"columns": ["compound", "MIC"],
 "data": [
  ["COc1ccc(-c2ccc(C3=NOC(CNC(C)=O)C3)cc2)ccc1=O (stereo not given)", "> 16 µg/mL"],
  ["CC(=O)NC[C@H]1CC(c2ccc(-n3ccc(C#N)c3)c(F)c2)=NO1", "16 µg/mL"],
  ["COC(=O)N1CC=C(c2ccc(C3=NOC(CNC(C)=O)C3)cc2)CC1 (stereo not given)", "> 16 µg/mL"],
  ["CC(=O)NC[C@@H]1CC(c2ccc(C3=CCN(C(=O)CO)CC3)cc2)=NO1", "> 16 µg/mL"],
  ["CC(=O)NC[C@H]1CC(c2ccc(-n3cccn3)c(F)c2)=NO1", "> 16 µg/mL"],
  ["C/C(S)=N/C[C@H]1CC(c2ccc(-n3cccc3)c(F)c2)=NO1", "> 16 µg/mL"],
  ["CC(=O)NCC1CC(c2cc(F)c(N3CCOCC3)c(F)c2)=NO1 (racemic)", "> 16 µg/mL"],
  ["CC(=O)NC[C@@H]1CC(c2cc(F)c(N3CCOCC3)c(F)c2)=NO1", "> 16 µg/mL"],
  ["CC(=O)NCC1CC(c2ccc(C3=CCN(C(C)=O)CC3)cc2)=NO1 (stereo not given)", "> 16 µg/mL"],
  ["C/C(S)=N/C[C@H]1CC(c2cc(F)c(N3CCOCC3)c(F)c2)=NO1", "16 µg/mL"]
]}

----------
Molecular target: CYP1A2 (Homo sapiens, UniProt P05177)
Sequence (P05177 whole entry): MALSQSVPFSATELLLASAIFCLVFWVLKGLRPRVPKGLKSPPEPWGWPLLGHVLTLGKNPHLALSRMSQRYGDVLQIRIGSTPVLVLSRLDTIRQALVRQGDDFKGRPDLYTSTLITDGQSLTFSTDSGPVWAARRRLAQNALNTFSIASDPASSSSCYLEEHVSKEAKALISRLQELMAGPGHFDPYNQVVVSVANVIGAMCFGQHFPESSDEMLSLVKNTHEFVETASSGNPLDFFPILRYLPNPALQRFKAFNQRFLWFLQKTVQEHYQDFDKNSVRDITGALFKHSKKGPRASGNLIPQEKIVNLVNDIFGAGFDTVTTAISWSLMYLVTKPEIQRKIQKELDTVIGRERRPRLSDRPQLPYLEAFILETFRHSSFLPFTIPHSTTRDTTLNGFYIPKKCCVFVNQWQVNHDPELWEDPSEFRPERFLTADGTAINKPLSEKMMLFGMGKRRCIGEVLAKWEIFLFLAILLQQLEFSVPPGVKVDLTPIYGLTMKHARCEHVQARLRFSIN
Experiment: Inhibition of heterologously expressed human Cytochrome P450 1A2 at 10 uM
Type: ADME
Parameters: scale not given: the % may be the effect or the level left
Details: read-out: Control of P-450 marker

{"columns": ["compound.smiles", "activity at 10 µM"],
 "data": [
  ["CC(=O)NC[C@H]1CC(c2ccc(N3CCOCC3)c(F)c2)=NO1", "100%"]
]}

----------
Target: CYP3A4 (Homo sapiens)
Sequence (P08684 whole entry): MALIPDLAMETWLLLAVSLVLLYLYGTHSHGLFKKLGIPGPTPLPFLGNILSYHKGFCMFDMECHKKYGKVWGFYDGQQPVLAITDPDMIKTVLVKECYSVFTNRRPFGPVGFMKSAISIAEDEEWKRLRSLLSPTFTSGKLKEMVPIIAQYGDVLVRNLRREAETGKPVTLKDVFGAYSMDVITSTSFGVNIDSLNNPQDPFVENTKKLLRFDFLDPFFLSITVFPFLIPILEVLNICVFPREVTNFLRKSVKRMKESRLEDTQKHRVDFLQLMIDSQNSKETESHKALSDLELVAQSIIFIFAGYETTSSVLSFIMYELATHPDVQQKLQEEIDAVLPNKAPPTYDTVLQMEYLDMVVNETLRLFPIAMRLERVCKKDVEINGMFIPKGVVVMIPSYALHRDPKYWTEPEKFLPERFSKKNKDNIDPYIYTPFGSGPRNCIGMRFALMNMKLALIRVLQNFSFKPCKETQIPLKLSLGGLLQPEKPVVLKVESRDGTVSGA
Experiment: Inhibition of heterologously expressed human Cytochrome P450 3A4 at 10 uM
Format: ADME
Design: scale not given: the % may be the effect or the level left
Settings: read-out: Control of P-450 marker
recorded.metric: activity at 10 µM (%)

{"columns": ["compound.smiles", "tgt", "obs.value"],
 "data": [
  ["CC(=O)NC[C@H]1CC(c2ccc(N3CCOCC3)c(F)c2)=NO1", "CYP3A4 (Homo sapiens)", 88.9]
]}

----------
Molecular target: CYP2D6 (Homo sapiens, UniProt P10635)
Sequence (P10635 whole entry): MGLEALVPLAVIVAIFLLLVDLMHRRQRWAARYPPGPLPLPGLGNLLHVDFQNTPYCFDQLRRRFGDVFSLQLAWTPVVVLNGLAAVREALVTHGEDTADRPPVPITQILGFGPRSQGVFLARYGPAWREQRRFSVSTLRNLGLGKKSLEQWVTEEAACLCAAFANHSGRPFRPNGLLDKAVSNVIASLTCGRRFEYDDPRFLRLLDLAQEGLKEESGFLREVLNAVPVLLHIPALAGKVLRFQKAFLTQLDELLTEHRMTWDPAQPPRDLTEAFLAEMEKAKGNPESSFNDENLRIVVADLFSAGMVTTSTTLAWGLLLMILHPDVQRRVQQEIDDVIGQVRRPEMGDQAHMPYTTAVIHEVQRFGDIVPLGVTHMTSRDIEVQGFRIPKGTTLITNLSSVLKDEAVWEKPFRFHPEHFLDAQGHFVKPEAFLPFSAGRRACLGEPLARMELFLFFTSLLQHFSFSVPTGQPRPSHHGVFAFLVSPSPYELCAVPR
Test: Inhibition of heterologously expressed human Cytochrome P450 2D6 at 10 uM
Type: ADME
Parameters: scale not given: the % may be the effect or the level left
Details: read-out: Control of P-450 marker
recorded.metric: activity at 10 µM (%)

{"columns": ["compound.smiles", "result.unit", "obs.value"],
 "data": [
  ["CC(=O)NC[C@H]1CC(c2ccc(N3CCOCC3)c(F)c2)=NO1", "%", 101]
]}

----------
Assay: Plasma clearance in Male Sprague-Dawley Rat (48.9 mg/kg po)
Assay type: ADME, organism-based
recorded.metric: CL/F (L/h/kg)

{"columns": ["compound.smiles", "recorded.metric", "obs.value"],
 "data": [
  ["CC(=O)NC[C@H]1CC(c2ccc(N3CCOCC3)c(F)c2)=NO1", "CL/F", 0.516]
]}

----------
System: Staphylococcus epidermidis
Experiment: In vitro minimum inhibitory concentration (MIC) against Staphylococcus epidermidis UC12084
Assay type: functional
Below, each of the compounds is paired with its reported MIC value.
recorded.metric: MIC (µg/mL)

{"columns": ["compound", "tgt", "inequality.symbol", "obs.value"],
 "data": [
  ["CC(=O)NC[C@H]1CC(c2ccc(-n3ccc(C#N)c3)c(F)c2)=NO1", "Staphylococcus epidermidis", "=", 0.25],
  ["CC(=O)NC[C@H]1CC(c2cc(F)c(N3CCOCC3)c(F)c2)=NO1", "Staphylococcus epidermidis", "=", 2],
  ["CC(=O)NCC1CC(c2cc(F)c(N3CCOCC3)c(F)c2)=NO1 (racemic)", "Staphylococcus epidermidis", "=", 4],
  ["COC(=O)N1CC=C(c2ccc(-c3cc(CNC(C)=O)on3)cc2)CC1", "Staphylococcus epidermidis", ">", 16],
  ["CC(=O)NCC1CC(c2ccc(Br)cc2)=NO1 (configuration not stated)", "Staphylococcus epidermidis", ">", 16],
  ["CC(=O)NC[C@@H]1CC(c2ccc(C3=CCN(C(=O)CO)CC3)cc2)=NO1", "Staphylococcus epidermidis", ">", 16],
  ["CC(=O)NC[C@H]1CC(c2ccc(C3=CCN(C(=O)CO)CC3)cc2)=NO1", "Staphylococcus epidermidis", "=", 1],
  ["CC(=O)NC[C@H]1CC(c2cc(F)c(-n3ccnc3)c(F)c2)=NO1", "Staphylococcus epidermidis", "=", 2],
  ["CC(=O)NCC1CC(c2ccc(C3=CCN(C(=O)CO)CC3)cc2)=NO1 (racemic)", "Staphylococcus epidermidis", "=", 4],
  ["CC(=O)NC[C@H]1CC(c2ccc(N3CCN(C(=O)CO)CC3)c(F)c2)=NO1", "Staphylococcus epidermidis", "=", 1],
  ["CC(=O)NC[C@H]1CN(c2ccc(N3CCOCC3)c(F)c2)C(=O)O1 [LINEZOLID]", "Staphylococcus epidermidis", "=", 1],
  ["CC(=O)NC[C@H]1CC(c2cc(F)c(N3CCNCC3)c(F)c2)=NO1", "Staphylococcus epidermidis", "=", 0.5]
]}

----------
System: Staphylococcus aureus
Test: In vitro minimum inhibitory concentration (MIC) against Staphylococcus aureus UC9213
Assay type: functional
Sorting guide: entries reporting MIC beneath 8 µg/mL go in the yes pile, the rest go in the no pile.

{"columns": ["compound", "tgt", "category"],
 "data": [
  ["CC(=O)NC[C@@H]1CC(c2ccc(N3CCN(C(=O)CO)CC3)c(F)c2)=NO1", "Staphylococcus aureus", "no"],
  ["CC(=O)NC[C@H]1CC(c2cc(F)c(N3CCNCC3)c(F)c2)=NO1", "Staphylococcus aureus", "yes"],
  ["CC(=O)NCC1CC(c2ccc(N3CCN(C(=O)CO)CC3)cc2)=NO1 (stereo unspecified)", "Staphylococcus aureus", "no"],
  ["COC(=O)N1CC=C(c2ccc(-c3cc(CNC(C)=O)on3)cc2)CC1", "Staphylococcus aureus", "no"],
  ["CC(=O)NC[C@H]1CC(c2ccc(-n3cncn3)c(F)c2)=NO1", "Staphylococcus aureus", "no"],
  ["CC(=O)NC[C@H]1CC(c2cc(F)c(N3CCN(C(=O)CO)CC3)c(F)c2)=NO1", "Staphylococcus aureus", "yes"],
  ["CC(=O)NC[C@H]1CC(c2cc(F)c(N3CCOCC3)c(F)c2)=NO1", "Staphylococcus aureus", "yes"],
  ["COC(=O)N1CC=C(c2ccc(C3=NOC(CNC(C)=O)C3)cc2)CC1 (stereo unspecified)", "Staphylococcus aureus", "no"],
  ["CC(=O)NC[C@H]1CC(c2ccc(-c3ccncc3)cc2)=NO1", "Staphylococcus aureus", "yes"],
  ["CC(=O)NC[C@H]1CC(c2ccc(-n3ccc(C#N)c3)c(F)c2)=NO1", "Staphylococcus aureus", "yes"],
  ["CC(=O)NC[C@H]1CC(c2ccc(-n3cc(C#N)cn3)c(F)c2)=NO1", "Staphylococcus aureus", "yes"],
  ["CC(=O)NC[C@H]1CC(c2ccc(-n3cccc3)c(F)c2)=NO1", "Staphylococcus aureus", "yes"],
  ["CC(=O)NC[C@H]1CC(c2ccc(-n3cccn3)c(F)c2)=NO1", "Staphylococcus aureus", "no"],
  ["CC(=O)NC[C@@H]1CC(c2cc(F)c(N3CCOCC3)c(F)c2)=NO1", "Staphylococcus aureus", "no"],
  ["CC(=O)NC[C@H]1CC(c2ccc(N3CCOCC3)c(F)c2)=NO1", "Staphylococcus aureus", "yes"],
  ["CC(=O)NC[C@H]1CC(c2ccc(-n3ccnc3)c(F)c2)=NO1", "Staphylococcus aureus", "yes"],
  ["CC(=O)NCC1CC(c2ccc(C3=CCN(C(=O)CO)CC3)cc2)=NO1 (racemic)", "Staphylococcus aureus", "yes"]
]}
